This collection of values is drawn from ChEMBL document CHEMBL1145498.

biological target: UniProt Q00532
Sequence (Q00532 whole entry): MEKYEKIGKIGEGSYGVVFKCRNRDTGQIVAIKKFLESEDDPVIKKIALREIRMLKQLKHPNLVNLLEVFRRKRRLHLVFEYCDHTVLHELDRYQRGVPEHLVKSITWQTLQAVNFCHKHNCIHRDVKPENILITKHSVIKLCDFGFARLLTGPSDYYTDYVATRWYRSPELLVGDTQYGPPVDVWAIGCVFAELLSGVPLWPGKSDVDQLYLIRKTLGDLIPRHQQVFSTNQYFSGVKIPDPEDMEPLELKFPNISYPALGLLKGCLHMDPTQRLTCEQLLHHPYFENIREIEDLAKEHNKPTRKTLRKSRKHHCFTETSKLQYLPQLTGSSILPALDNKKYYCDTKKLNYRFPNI
For each record, check the reported ΔTm: if it is below 0.3 °C write Y, else write N.

compound=Cc1ccc(NC2=CC(=O)c3sc(C)nc3C2=O)cc1 label_class=Y
compound="COc1cc(/C=C/C(=O)CC(=O)/C=C/c2ccc(O)c(OC)c2)ccc1O [CURCUMIN]" label_class=N
compound=Cc1ccc(NC(=O)c2cccc(N(C)C)c2)cc1NC(=O)c1ccc(O)cc1 label_class=Y
compound=CCN(CC)CCNC(=O)c1c(C)[nH]c(/C=C2\C(=O)Nc3ccc(F)cc32)c1C label_class=N
compound="CCCCc1c(-c2ccc(O)cc2)[nH]c2nccnc12 [ALOISINE A]" label_class=Y
